// values below are reported Selectivity Index = IC50 (AChE)/IC50 (BuChE)
biological target: acetylcholinesterase (AChE, from an electric eel) (Electrophorus electricus, UniProt O42275); construct: purchased Sigma-Aldrich; assay: biochemical; details: ratio of eeAChE and equine BuChE IC50
Sequence (O42275 24-633): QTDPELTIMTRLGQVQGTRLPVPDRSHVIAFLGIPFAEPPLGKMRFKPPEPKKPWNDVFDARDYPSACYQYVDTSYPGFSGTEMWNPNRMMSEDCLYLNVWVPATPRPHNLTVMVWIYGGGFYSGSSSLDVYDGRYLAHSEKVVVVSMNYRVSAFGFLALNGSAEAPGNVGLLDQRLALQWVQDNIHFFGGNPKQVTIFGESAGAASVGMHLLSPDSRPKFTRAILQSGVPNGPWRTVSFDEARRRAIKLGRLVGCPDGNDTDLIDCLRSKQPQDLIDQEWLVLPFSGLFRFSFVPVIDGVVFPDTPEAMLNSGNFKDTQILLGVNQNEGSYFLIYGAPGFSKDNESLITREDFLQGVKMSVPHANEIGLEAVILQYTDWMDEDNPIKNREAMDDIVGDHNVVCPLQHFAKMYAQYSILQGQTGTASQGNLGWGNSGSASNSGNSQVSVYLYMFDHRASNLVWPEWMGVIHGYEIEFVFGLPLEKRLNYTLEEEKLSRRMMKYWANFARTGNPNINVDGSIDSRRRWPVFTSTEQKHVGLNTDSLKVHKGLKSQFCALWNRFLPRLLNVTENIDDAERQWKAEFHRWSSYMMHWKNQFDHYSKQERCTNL
assay.metric: Selectivity Index = IC50 (AChE)/IC50 (BuChE)

{"columns": ["molecule", "measured.value"],
 "data": [
  ["Nc1cccc2ccc(CN3CCN(CCNc4c5c(nc6ccccc46)CCCC5)CC3)nc12 [Compound 16d]", 0.86],
  ["Nc1cccc2ccc(CN3CCN(CC(=O)Nc4c5c(nc6ccccc46)CCCC5)CC3)nc12 [Compound 15f]", 0.16],
  ["Oc1cccc2ccc(CN3CCN(CCCCCNc4c5c(nc6ccccc46)CCCC5)CC3)nc12 [Compound 16h]", 2.10],
  ["O=C(CN1CCN(Cc2ccc3c(Cl)ccc(O)c3n2)CC1)Nc1c2c(nc3ccccc13)CCCC2 [Compound 15b]", 0.19],
  ["Oc1c(Cl)cc(Cl)c2ccc(CN3CCN(CCNc4c5c(nc6ccccc46)CCCC5)CC3)nc12 [Compound 16c]", 0.79]
]}

---

target: butyrylcholinesterase (BuChE, from horse serum) (Equus caballus, UniProt P81908); assay: biochemical; conditions: equine serum BuChE, Ellman's method, pH 7.4; means ± SEM of at least three experiments; read-out: IC50 BuChE Inhibition
Sequence (P81908 whole entry): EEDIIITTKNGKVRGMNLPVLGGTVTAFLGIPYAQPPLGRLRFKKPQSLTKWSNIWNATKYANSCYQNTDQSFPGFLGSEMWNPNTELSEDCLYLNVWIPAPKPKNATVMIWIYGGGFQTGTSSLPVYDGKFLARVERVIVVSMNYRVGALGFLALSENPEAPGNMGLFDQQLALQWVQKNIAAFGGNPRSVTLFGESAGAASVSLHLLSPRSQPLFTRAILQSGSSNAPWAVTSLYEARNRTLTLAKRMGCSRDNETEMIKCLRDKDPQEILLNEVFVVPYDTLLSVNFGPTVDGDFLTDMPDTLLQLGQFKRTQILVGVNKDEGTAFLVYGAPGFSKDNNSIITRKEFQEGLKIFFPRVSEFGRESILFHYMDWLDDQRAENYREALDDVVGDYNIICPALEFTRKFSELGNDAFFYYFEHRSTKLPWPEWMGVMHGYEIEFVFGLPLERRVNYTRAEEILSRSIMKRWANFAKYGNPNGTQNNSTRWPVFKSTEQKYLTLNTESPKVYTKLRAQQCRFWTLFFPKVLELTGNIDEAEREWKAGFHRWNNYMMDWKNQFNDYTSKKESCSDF
pIC50: −log10 of the molar value.
assay.metric: pIC50

{"columns": ["compound", "measured.value"],
 "data": [
  ["Nc1cccc2ccc(CN3CCN(CCCCCNc4c5c(nc6ccccc46)CCCC5)CC3)nc12 [Compound 16k]", 7.27],
  ["Nc1cccc2ccc(CN3CCN(CCNc4c5c(nc6ccccc46)CCCC5)CC3)nc12 [Compound 16d]", 6.68],
  ["Oc1c(Cl)cc(Cl)c2ccc(CN3CCN(CCNc4c5c(nc6ccccc46)CCCC5)CC3)nc12 [Compound 16c]", 5.47],
  ["Nc1cccc2ccc(CN3CCN(CCCNc4c5c(nc6ccccc46)CCCC5)CC3)nc12 [Compound 16g]", 7.74],
  ["O=C(CN1CCN(Cc2ccc3cccc(O)c3n2)CC1)Nc1c2c(nc3ccccc13)CCCC2 [Compound 15a]", 5.11],
  ["Oc1ccc(Cl)c2ccc(CN3CCN(CCCCCNc4c5c(nc6ccccc46)CCCC5)CC3)nc12 [Compound 16j]", 7.35],
  ["O=C(CN1CCN(Cc2ccc3c(Cl)ccc(O)c3n2)CC1)Nc1c2c(nc3ccccc13)CCCC2 [Compound 15b]", 4.94],
  ["O=C(CN1CCN(Cc2ccc3c(Cl)cc(Cl)c(O)c3n2)CC1)Nc1c2c(nc3ccccc13)CCCC2 [Compound 15e]", 5.26],
  ["Oc1ccc(F)c2ccc(CN3CCN(CCNc4c5c(nc6ccccc46)CCCC5)CC3)nc12 [Compound 16b]", 6.70],
  ["Cc1ccc2c(CN3CCN(CC(=O)Nc4c5c(nc6ccccc46)CCCC5)CC3)ccc(O)c2n1 [Compound 17b]", 5.36],
  ["Oc1cccc2ccc(CN3CCN(CCCCCNc4c5c(nc6ccccc46)CCCC5)CC3)nc12 [Compound 16h]", 7.00]
]}

---

assay: Metal chelation by UV–vis spectrometry, Job's method and affinity estimate (Cu); format: physicochemical; details: CH3OH/H2O (v/v = 9/1), UV–vis, 2L+M⇔ML2
assay.metric: LogK Cu (affinity of ligand for Cu^II, ML2)

{"columns": ["molecule", "measured.value"],
 "data": [
  ["Oc1ccc(F)c2ccc(CN3CCN(CCCNc4c5c(nc6ccccc46)CCCC5)CC3)nc12 [Compound 16f]", 9.62],
  ["O=C(CN1CCN(Cc2ccc3c(Cl)ccc(O)c3n2)CC1)Nc1c2c(nc3ccccc13)CCCC2 [Compound 15b]", 10.09],
  ["Oc1cccc2ccc(CN3CCN(CCCNc4c5c(nc6ccccc46)CCCC5)CC3)nc12 [Compound 16e]", 9.46],
  ["Oc1c(Cl)cc(Cl)c2ccc(CN3CCN(CCNc4c5c(nc6ccccc46)CCCC5)CC3)nc12 [Compound 16c]", 9.75],
  ["Oc1cccc2ccc(CN3CCN(CCCCCNc4c5c(nc6ccccc46)CCCC5)CC3)nc12 [Compound 16h]", 9.87],
  ["O=C(CN1CCN(Cc2ccc3cccc(O)c3n2)CC1)Nc1c2c(nc3ccccc13)CCCC2 [Compound 15a]", 10.14],
  ["O=C(CN1CCN(Cc2ccc3c(Cl)cc(Cl)c(O)c3n2)CC1)Nc1c2c(nc3ccccc13)CCCC2 [Compound 15e]", 9.59],
  ["O=C(CN1CCN(Cc2ccc(O)c3ncccc23)CC1)Nc1c2c(nc3ccccc13)CCCC2 [Compound 17a]", 9.50],
  ["Cc1ccc2c(CN3CCN(CC(=O)Nc4c5c(nc6ccccc46)CCCC5)CC3)ccc(O)c2n1 [Compound 17b]", 9.42],
  ["Oc1ccc(F)c2ccc(CN3CCN(CCCCCNc4c5c(nc6ccccc46)CCCC5)CC3)nc12 [Compound 16i]", 9.49],
  ["Oc1cccc2ccc(CN3CCN(CCNc4c5c(nc6ccccc46)CCCC5)CC3)nc12 [Compound 16a]", 9.63],
  ["Oc1ccc(F)c2ccc(CN3CCN(CCNc4c5c(nc6ccccc46)CCCC5)CC3)nc12 [Compound 16b]", 9.99],
  ["Oc1ccc(Cl)c2ccc(CN3CCN(CCCCCNc4c5c(nc6ccccc46)CCCC5)CC3)nc12 [Compound 16j]", 9.96]
]}
